Kindly state TGI for each of the entries shown.
System: LOX IMVI melanoma
protocol: NCI tumour cell line growth inhibition, 48 h
Numeric only. Scale: µM

Q: For the compound O=c1cc(-c2ccc(O)cc2)n(C2CC2)c2ccccc12 , give its measured TGI value.
A: 16.7

Q: Tell us which TGI value is on record for CCCCOc1ccc(NC(=O)n2nc(N)c3ccccc32)cc1
A: 24.2

----------
Tested on: K-562 leukemia
protocol: NCI tumour cell line growth inhibition, 48 h
Kindly state TGI for each of the entries shown.

Q: Fill in TGI for CC1(C)/C(=N\O)C2(C#N)CCC1C2 (stereo unspecified) tested with K-562 leukemia.
A: > 100 µM

Q: Output reported TGI of the molecule Fc1ccc(-c2nn3c(-c4ccc(F)c(Cl)c4)nnc3s2)cc1 on K-562 leukemia.
A: > 50 µM

Q: Find TGI for CC(C)c1c(C(=O)Nc2ccccc2)c(-c2ccccc2)c(-c2ccc(F)cc2)n1CC[C@@H]1CC=CC(=O)O1 on K-562 leukemia and write it down.
A: 2.62 µM

Q: Tell me its TGI on K-562 leukemia: O=S(=O)(N/N=C/c1ccc(Cl)c(Cl)c1)c1ccccc1
A: > 100 µM

Q: Enter recorded TGI with K-562 leukemia for CC(=O)Nc1ccc2c3c(cc(O)c2c1)N(C(=O)CCCCCC(=O)N1CC(CCl)c2c1cc(O)c1cc(NC(C)=O)ccc21)CC3CCl (stereo unspecified) here.
A: > 100 µM

Q: Please look at COc1ccc(NC(=O)CC(=O)N2N=C(N(CCC#N)c3ccccc3Cl)CC2c2ccccc2)cc1 (stereo unspecified) and tell me its recorded TGI on K-562 leukemia.
A: > 100 µM

Q: Supply TGI measured with K-562 leukemia for CCN1/C(=C/C=C/c2n(-c3ccccc3)c3ccc(-c4nc5ccccc5s4)cc3[n+]2CC)N(c2ccccc2)c2ccc(-c3nc4ccccc4s3)cc21 .
A: > 50 µM

Q: Lab note: K-562 leukemia assay, enter TGI for CCOc1ccc(Nc2nc3c(s2)C(=O)c2ccccc2C3=O)cc1 here
A: > 100 µM

Q: Report TGI on K-562 leukemia for this entry: CC(C)(C)n1c(=O)[nH]n(C2NN=Cc3cccc4cccc2c34)c1=O (stereo unspecified)
A: 40.7 µM

Q: Answer with TGI of Cc1oc2c(C)c3oc(=O)cc(C)c3cc2c1CNC(=O)[C@@H]1OCCOCCOCCOCCOCCOC1C(=O)O (stereo partly specified) measured for K-562 leukemia.
A: > 100 µM

Q: # assay system K-562 leukemia: give TGI of CCCCCCc1cc2cc(-c3nc4ccccc4[nH]3)c(=Nc3ccccc3C)oc2cc1O
A: 9.29 µM

Q: Retrieve TGI on K-562 leukemia; query CCN(CC)CCCn1cnc2ncccc2c1=O
A: > 100 µM

Q: Return reported TGI for target or system K-562 leukemia, item C=[N+](CNC(=O)CNC(=O)C(Cc1ccc([N+](=O)[O-])cc1)NC(=O)OC(C)(C)C)C(=O)CNC(=O)C(Cc1ccc([N+](=O)[O-])cc1)NC(=O)OC(C)(C)C (stereo unspecified) .
A: > 100 µM

Q: State, for K-562 leukemia, measured TGI of the molecule listed here: CC(=O)Nc1ccc(N=C2C(c3ccccc3)=C(SC3=C(c4ccccc4)C(=Nc4ccc(NC(C)=O)cc4)c4ccccc43)c3ccccc32)cc1
A: > 100 µM

Q: Quote TGI with test system K-562 leukemia for Cc1ccc(S(=O)(=O)n2c3c(c4ccccc42)CCN2C(=O)C(S(=O)(=O)c4ccccc4)=CCC32)cc1 (stereo unspecified)
A: 0.673 µM

Q: Look up and report TGI, with K-562 leukemia as system, for COc1ccc(NC(=O)CC(=O)N2N=C(c3ccccc3)C(N=Nc3ccc(S(=O)(=O)CCOS(=O)(=O)O)cc3)C2=O)cc1 (stereo unspecified)
A: > 100 µM
